Kindly supply the reported protein stability index values for the records listed here.
- Assay Overview: protein stability index of a GFP-peptide fusion (yeast GPS) (PSI 1-4); higher = more stable; sorted into four equal gates, so the index is relative within each strain
- Settings: doa10∆
// no unit, no text: just the number

Short answer for QLKAEEKKILNQFLKIK [SMC1] : protein stability index was 2.8

Short answer for VAKTAPNSNKTHTEQNN [SNF2] : protein stability index was 2.82

Short answer for DRQLHEISTSKKNNLEF [RPN14] : protein stability index was 2.96

Short answer for SNLQRAQNVPMNIIQQQ [GAL11] : protein stability index was 2.47

Short answer for NAELLDYLFHLLISLNI [YLR018C/POM34] : protein stability index was 1.79

Short answer for LTQLLSMMSDGIEHFDI [RPO31] : protein stability index was 2.93

Short answer for LFKYQGHIGAYLIVAGV [PUP1] : protein stability index was 1.66

Short answer for TRKSLNNAVRFSKQCLI [ECM29] : protein stability index was 2.15

Short answer for EATSNTNSEDKLSKVQL [MED4] : protein stability index was 2.82

Short answer for STIDANFADKYDEVKKH [RPL8A] : protein stability index was 2.5

Short answer for IDFAPTSPFGGARPGRV [RPS9A] : protein stability index was 2.82

----------
- Assay Overview: protein stability index of a GFP-peptide fusion (yeast GPS) (PSI 1-4); higher = more stable; sorted into four equal gates, so the index is relative within each strain
- Settings: ubr1∆
Kindly supply the reported protein stability index values for the records listed here.
// no unit, no text: just the number

Short answer for KDGAKFIEVRNFLGDKK [RPL9A] : protein stability index was 1.35

Short answer for VAAKWNTSLISLFTYFR [PRP8] : protein stability index was 2

Short answer for APGTEAGIVPVSANTPK [SWI1] : protein stability index was 3.18

Short answer for TKQRLDAYYDLELRNSV [PRP8] : protein stability index was 2.74

Short answer for SQLAQVAAFVNNYPNVE [BRR2] : protein stability index was 2.76

Short answer for LKWSACTSLMDIIVAIK [IRR1] : protein stability index was 2.83

Short answer for KKSEEKLREKVNDVELA [MTW1] : protein stability index was 3.06

Short answer for LQEAIDFAQKEINGDDD [PRE10] : protein stability index was 2.96

----------
Kindly supply the reported protein stability index values for the records listed here.
- Assay Overview: protein stability index of a GFP-peptide fusion (yeast GPS) (PSI 1-4); higher = more stable; sorted into four equal gates, so the index is relative within each strain
- Settings: ubr1∆
// no unit, no text: just the number

Short answer for SDEEEVTEMSNNANVLG [BRR2] : protein stability index was 3.17

Short answer for RDVYVFDKVEVQVRSVM [DIS3] : protein stability index was 3.24

Short answer for AAANNNIKPVEQHHINN [GAL11] : protein stability index was 2.96

Short answer for VLRKQKRYTVKKALAKA [RPL14A] : protein stability index was 1.55

Short answer for DIVPYFLKHNGEEDAVD [RPN1] : protein stability index was 3.22

Short answer for ELDPECQLQNSDNSEEE [RRP43] : protein stability index was 3

Short answer for PFDNSTEEKCKNFIESE [YJL039C/NUP192] : protein stability index was 3.32

Short answer for IKVPTYIRKLISSGLLY [SRB8] : protein stability index was 1.2

Short answer for TSSIFQESFNSVQNLDQ [NUT1] : protein stability index was 3.14

Short answer for TFVYILEKLIFDMTNHY [SRB8] : protein stability index was 1.69

Short answer for LQVLKRERDGIKEDIEK [SMC1] : protein stability index was 2.75

Short answer for YITLKATFLKDDLPYYV [QCR2] : protein stability index was 2.44

Short answer for IHSMNENPTPEKGNAKM [SIR3] : protein stability index was 2.87

Short answer for RFPTKFVTQFRHLRRTG [RET1] : protein stability index was 2.17

Short answer for QENSSKIITLDLSNYAE [SMC1] : protein stability index was 3.13

Short answer for STEETTANTGTIGKRRT [TAF14] : protein stability index was 2.77

Short answer for KEPRLVIVTDPRSDAQA [RPS0A] : protein stability index was 3.05

Short answer for MKTQRFVSNMGFDIQKS [SIR4] : protein stability index was 2.01

Short answer for ELISLRKILESSNIVNE [YIL149C/MLP2] : protein stability index was 2.12

Short answer for SPGSPAYSPKQDEQKHN [RPO21] : protein stability index was 3.27

Short answer for QVQGQQQAQSFVGKKNT [SSN3] : protein stability index was 2.57

Short answer for TVPNINFSGLNGGITNT [YOR098C/NUP1] : protein stability index was 3.67

Short answer for LVLDLLTWLSSFSVCKI [IRR1] : protein stability index was 1.71

Short answer for SVMPPNEVYSAYVVNDT [DLS1] : protein stability index was 3.04

Short answer for RTLTAVHDKVLEDMVFP [RPS7B] : protein stability index was 3.27

Short answer for PLVGKPKTELTKGDSTP [YAR002W/NUP60] : protein stability index was 2.83

Short answer for SIGYETELKKITDKTIK [IRR1] : protein stability index was 3

Short answer for QSTQTDLEKTERIVVSY [SMC2] : protein stability index was 2.69

Short answer for MTIDLEPIEESSQNNSE [IRR1] : protein stability index was 3.09

Short answer for SHTGLVRKYDLNICRQC [RPS29B] : protein stability index was 2.09

----------
- Assay Overview: protein stability index of a GFP-peptide fusion (yeast GPS) (PSI 1-4); higher = more stable; sorted into four equal gates, so the index is relative within each strain
- Settings: doa10∆
Observed Property: protein stability index
// no unit, no text: just the number

Short answer for TAKETKMLMNLHKEQWQ [RPN11] : protein stability index was 3.28

Short answer for DPASFYLFDEIDAALDK [SMC3] : protein stability index was 2.89

Short answer for RTIANQDHFHRLNYLYQ [RPR2] : protein stability index was 2.64

Short answer for TFEFINIAFDAHMSIGC [YML031W/NDC1] : protein stability index was 1.2

Short answer for ITRSVMRFNIEIIADWI [BRR2] : protein stability index was 3.04

Short answer for TATLAWGVNLPAHTVII [BRR2] : protein stability index was 1.26

Short answer for IADSTHVKRITKIAQSQ [ECM29] : protein stability index was 1.86

Short answer for AMSLYHSPFPFNRTKGK [PRP8] : protein stability index was 2.11

Short answer for EAQDEASLQQQQQQDLQ [SNF6] : protein stability index was 3.27

Short answer for ERTKNAQFIVISLRNNM [SMC4] : protein stability index was 2.72

Short answer for SCGEEEFFSTNWLSIFN [REC8] : protein stability index was 3.33

Short answer for DGKLEPSTRSNFILEVF [YJL039C/NUP192] : protein stability index was 1.63

Short answer for VNEIMYKCTAAMEKYLL [MTW1] : protein stability index was 2.19

Short answer for NNDKREIQEELERFNKR [SMC1] : protein stability index was 2.49

Short answer for KLRRECSNPTCGAGVFL [RPS31] : protein stability index was 1.78

Short answer for GSGKSNMMDAISFVLGV [SMC1] : protein stability index was 3.18

Short answer for YLLTQQQIWKSPNFKNY [SOH1] : protein stability index was 1.73

Short answer for VKAFLSIFEDAIKELNY [NUT1] : protein stability index was 2.04

Short answer for CLQDALDAIDDFIQLKQ [SSN2] : protein stability index was 2.73

Short answer for QLNLNNLTPANILNMSM [PGD1] : protein stability index was 3.04

Short answer for EPAIEEENGDSIKEHST [MED1] : protein stability index was 3.32

Short answer for RYDCSFCGKKTVKRGAA [RPL43A] : protein stability index was 2.07

Short answer for SHVNKYGLIRGLKFASF [PRP8] : protein stability index was 1.83

Short answer for WNWAKQSLLSLYFEIIH [FAS2] : protein stability index was 1.7

Short answer for KKNPNWLEEYHPKLIKN [FAS1] : protein stability index was 2.05

Short answer for DFKNEESLSEEHASLLV [MED8] : protein stability index was 3.35

Short answer for VKDKQSKVSDDSESESG [RPN8] : protein stability index was 1.97

Short answer for GSVFNMNGNTNANTVFA [YOR098C/NUP1] : protein stability index was 2.29

Short answer for GAKFENIVHNFKERQMM [AAR2] : protein stability index was 3.32

Short answer for KLKQGQKLFVQVSNFAP [GAL11] : protein stability index was 2.74

----------
- Assay Overview: protein stability index of a GFP-peptide fusion (yeast GPS) (PSI 1-4); higher = more stable; sorted into four equal gates, so the index is relative within each strain
- Settings: doa10∆
Kindly return yes (1) if reported protein stability index is no lower than 3; return no (0) if it is lower.

Task: Say whether TGKVSEFISIYSNSHQM [RET1] shows protein stability index of 3 or more.
Result: no (0)

Task: Say whether ETQEIKENDTVMNTKLL [ESC2] shows protein stability index of 3 or more.
Result: no (0)

Task: Say whether QTSVTTNFNEITNTDET [SWP82] shows protein stability index of 3 or more.
Result: no (0)

Task: Say whether YGYPSYSTIRQLVYKRG [RPL7A] shows protein stability index of 3 or more.
Result: no (0)

Task: Say whether SAKNRVVILARAKALGI [RPL32] shows protein stability index of 3 or more.
Result: no (0)

Task: Say whether GDKFSEDFRIQFKTTIK [UBP6] shows protein stability index of 3 or more.
Result: yes (1)

Task: Say whether TVKTNDELMVIYISNLV [RPN8] shows protein stability index of 3 or more.
Result: no (0)

Task: Say whether EEAKEEVTEEQAEATEW [RPS0A] shows protein stability index of 3 or more.
Result: yes (1)

Task: Say whether LKKGEQKTQELNAKYQS [ISW2] shows protein stability index of 3 or more.
Result: yes (1)

Task: Say whether TSTGTTIVGVKFNNGVV [PUP1] shows protein stability index of 3 or more.
Result: no (0)

Task: Say whether KKAVVKGTNGKKALKVR [RPL25] shows protein stability index of 3 or more.
Result: no (0)

Task: Say whether SVLKDSDDKTRQLSPHT [PRE1] shows protein stability index of 3 or more.
Result: no (0)

Task: Say whether RVIVAGTLDINPDDDYG [FAS1] shows protein stability index of 3 or more.
Result: no (0)

Task: Say whether SRGGVTQVRVEFLEDTS [RPS28A] shows protein stability index of 3 or more.
Result: yes (1)

Task: Say whether VKVKVSYQKLLKNYVLN [PRP8] shows protein stability index of 3 or more.
Result: no (0)

Task: Say whether ESQYPIVTEQPSAEIRE [SWP82] shows protein stability index of 3 or more.
Result: no (0)

Task: Say whether TFLPSYMKFSNKYLELC [RRI2] shows protein stability index of 3 or more.
Result: no (0)

Task: Say whether MSLTTAAPLLALLRENQ [RPN2] shows protein stability index of 3 or more.
Result: no (0)

Task: Say whether AARKAEKAKSAGVQGSK [RPL24B] shows protein stability index of 3 or more.
Result: yes (1)

Task: Say whether KQNSSSDINQNDDSSSM [YDL088C/ASM4] shows protein stability index of 3 or more.
Result: yes (1)

Task: Say whether MPGSQINSPMPQQAQMQ [SNF2] shows protein stability index of 3 or more.
Result: no (0)
